# methodNotes: Clearance in Sprague-Dawley rat at 5 mg/kg, iv by LC-MS/MS analysis
# Type: ADME, organism-based
# conditionContext: in vivo
assayEndpoint: clearance (mL/min/kg)
Please respond with the number in mL/min/kg and leave the unit unwritten.

Data request: Provide measured clearance value, entry: O=C(CN1CCN(c2ccc(OC(F)(F)F)cc2)CC1)Nc1ccc(-c2nc3ccccn3c2CN2CCN(c3ccccc3)CC2)cc1
Data returned: 130

Recorded values, source ChEMBL document CHEMBL5380807.
